biological target: T1, Ala mutant SEQ ID NO: 37 (human); test: ELISA, peptide on plate (10 ug/mL)
T1 sequence (peptide): EENMDDQWMQAEMEIGY
readout.kind: absorbance 490 nm/630 nm (OD)
Write the answer as a number in OD, unit excluded.

Lookup: Can you look up the measured absorbance 490 nm/630 nm of E9 (antibody, IgG1, V domains shown) VH: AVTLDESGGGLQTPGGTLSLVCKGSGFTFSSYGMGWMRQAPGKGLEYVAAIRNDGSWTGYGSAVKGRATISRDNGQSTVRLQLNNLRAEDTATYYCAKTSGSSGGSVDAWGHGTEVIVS VL: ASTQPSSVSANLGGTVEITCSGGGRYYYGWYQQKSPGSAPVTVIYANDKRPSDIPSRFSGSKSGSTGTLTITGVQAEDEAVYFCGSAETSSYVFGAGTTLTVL for me?
Found: 1.2

Lookup: Would you mind doing H7 (antibody, IgG1, V domains shown) VH: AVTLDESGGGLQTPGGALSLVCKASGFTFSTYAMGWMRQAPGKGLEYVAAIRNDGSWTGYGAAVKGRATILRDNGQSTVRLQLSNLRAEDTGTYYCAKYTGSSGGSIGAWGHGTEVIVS VL: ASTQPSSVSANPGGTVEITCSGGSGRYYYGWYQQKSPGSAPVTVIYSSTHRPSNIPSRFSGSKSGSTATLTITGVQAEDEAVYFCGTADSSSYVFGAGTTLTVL as well?
Found: 1.86

Lookup: Would you mind doing G9 (antibody, IgG1, V domains shown) VH: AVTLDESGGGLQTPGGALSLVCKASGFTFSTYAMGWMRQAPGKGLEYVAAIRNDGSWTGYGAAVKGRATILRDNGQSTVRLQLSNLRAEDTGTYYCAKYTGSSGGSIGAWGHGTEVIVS VL: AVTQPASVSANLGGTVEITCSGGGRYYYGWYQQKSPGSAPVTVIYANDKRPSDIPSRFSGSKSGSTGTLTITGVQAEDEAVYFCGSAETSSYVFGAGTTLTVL as well?
Found: 1.88
